Cited source for all entries: PubChem BioAssay (NCI)

# ASSAY COMMENT: NCI Yeast Anticancer Drug Screen. Data for the bub3 strain (AID 167)
# ASSAY SETUP: S. cerevisiae bub3 mutant strain, at 50.0 µM, stronger effect = higher value
The panel holds about 79,000 compounds, 15% with a hit somewhere; the sample as a whole holds those more often.
Task for the reader: assign each of the following compounds its reported growth inhibition.
Answers are plain numbers, in %.

Answered cases to consult:
>  <COMPOUND>
COP(=O)(OC)C1(C(C)(C)C)CO1 (configuration not stated)

>  <growth inhibition, %>
-11.6

$$$$
>  <COMPOUND>
O=C(CBr)NC1CCCCC1

>  <growth inhibition, %>
85.2

$$$$
>  <COMPOUND>
CSC(SC)=C1C(=O)NC(=O)NC1=O

>  <growth inhibition, %>
-10.1

$$$$
>  <COMPOUND>
Nc1ncnc(N)n1

>  <growth inhibition, %>
-2.2

$$$$
>  <COMPOUND>
CN(C)c1ccc(N=Nc2cccc(C(=O)[O-])c2)cc1.CN(C)c1ccc(N=Nc2cccc(C(=O)[O-])c2)cc1.NC1CCCCC1N.O=[N+]([O-])O.[Pt+4]

>  <growth inhibition, %>
81.5

$$$$

Record growth inhibition per entry; entries follow.
1. c1ccc([As]2[As](c3ccccc3)[As](c3ccccc3)[As]2c2ccccc2)cc1 (configuration not stated)
2. CN(N=O)c1ccc([N+](=O)[O-])cc1

Outgoing:
1: 99.2; 2: 24.4

====

# ASSAY COMMENT: NCI Yeast Anticancer Drug Screen. Data for the cln2 rad14 strain (AID 165);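 also: 0% = growth equal to vehicle treated cultures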
# ASSAY SETUP: S. cerevisiae cln2 rad14 strain, at 50.0 µM (retest, dose inferred, filed as 5.0), stronger effect = higher value
About 79,000 compounds went through this panel and 15% of them were active in at least one assay; those are over-represented in the sample as a whole.
Output y for growth inhibition not less than 70%; output n otherwise.

Examples from the recorded data:
>  <MOLECULE>
C[PH+](C)C.C[PH+](C)C.[Au]

>  <LABEL>
n

$$$$
>  <MOLECULE>
CCOP(=O)(OCC)C(O)c1ccccc1Cl (stereo not given)

>  <LABEL>
n

$$$$
>  <MOLECULE>
CC1=CC2CC(C)=C(CC[C@]3(C)CC[C@H]([C@@H](C)C(=O)O)OO3)C(C)(C)C2CC1 (stereo not given in full)

>  <LABEL>
y

$$$$
>  <MOLECULE>
C[CH2][Sn]1([CH2]C)[O]C(=O)CC(=O)[O]1

>  <LABEL>
n

$$$$
>  <MOLECULE>
CCCCCCCCCCCCCCCC[N+](C)(C)CCOS(C)(=O)=O

>  <LABEL>
y

$$$$

Incoming: Dear colleague, could you confirm whether COC(=O)C1c2c(C)cc3n2C(C=CC3)C1C(=O)OC (stereo not given) has growth inhibition at or above 70%?
Outgoing: y

Incoming: Dear colleague, could you confirm whether CC(C)c1ccc(C(c2c(O)c3ccccc3oc2=O)c2c(O)c3ccccc3oc2=O)cc1 has growth inhibition at or above 70%?
Outgoing: y

Incoming: Dear colleague, could you confirm whether CC(C)=CCC/C(C)=C/CC/C(C)=C/Cc1c(O)c2ccccc2oc1=O has growth inhibition at or above 70%?
Outgoing: y

Incoming: Dear colleague, could you confirm whether O=[As]c1ccc(O)c(O)c1 (stereo not given) has growth inhibition at or above 70%?
Outgoing: y

====

Task for the reader: assign each of the following compounds its reported growth inhibition.
# ASSAY COMMENT: NCI Yeast Anticancer Drug Screen. Data for the bub3 strain (AID 167)
# ASSAY SETUP: S. cerevisiae bub3 mutant strain, at 50.0 µM, stronger effect = higher value
This is part of a sample that, as a whole, favours compounds with a hit. Of some 79,000 tested, about 15% had one in any assay.
One number for each entry, in %.

Answered cases to consult:
>  <COMPOUND>
CCC[CH2][Sn]([CH2]CCC)([CH2]CCC)[O]C(=O)C(OC)c1ccccc1 (stereo not drawn)

>  <growth inhibition [%]>
88.7

$$$$
>  <COMPOUND>
O=C(NCCN1CCOCC1)c1ccc2cc(C(=O)N3CC(CCl)c4ccc([N+](=O)[O-])cc43)[nH]c2c1 (stereo not drawn)

>  <growth inhibition [%]>
89.8

$$$$

get_value(item= O=C([CH-]C(=O)c1ccccc1)c1ccccc1.O=C([CH-]C(=O)c1ccccc1)c1ccccc1.[Nd+3].[OH-].[OH3+] , readout=growth inhibition) returns 92.2

====

Task for the reader: assign each of the following compounds its reported growth inhibition.
# ASSAY COMMENT: NCI Yeast Anticancer Drug Screen. Data for the sgs1 mgt1 strain (AID 161);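 also: 0% = growth of cultures given vehicle only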
# ASSAY SETUP: S. cerevisiae sgs1 mgt1 strain, at 50.0 µM (retest, dose inferred, filed as 5.0), stronger effect = higher value
About 79,000 compounds went through this panel and 15% of them were active in at least one assay; those are over-represented in the sample as a whole.
One number for each entry, in %.

Answered cases to consult:
>  <COMPOUND>
Cc1cc(CCN)c(C)c2c1sc1ccccc12

>  <UNIT DESCRIPTOR>
%

>  <OBSERVED MEASUREMENT>
100

$$$$
>  <COMPOUND>
C=C1C(C)C2C(Cc3ccccc3)NC(=O)C23C(OC(C)=O)/C=C/C(C)(O)CC(C)C/C=C/C3C1O (stereo not drawn)

>  <UNIT DESCRIPTOR>
%

>  <OBSERVED MEASUREMENT>
99

$$$$
>  <COMPOUND>
CC(=O)OC[C@]12C[C@H](OC(=O)CC(C)C)C(C)=C[C@H]1OC1[C@H](O)[C@@H](OC(C)=O)[C@@]2(C)[C@@]12CO2

>  <UNIT DESCRIPTOR>
%

>  <OBSERVED MEASUREMENT>
99

$$$$
>  <COMPOUND>
CCCC(C)(COC(N)=O)COC(=O)NC1CC1 (stereo not drawn)

>  <UNIT DESCRIPTOR>
%

>  <OBSERVED MEASUREMENT>
0

$$$$
>  <COMPOUND>
Clc1ccc(Cl)c(Cl)c1

>  <UNIT DESCRIPTOR>
%

>  <OBSERVED MEASUREMENT>
98

$$$$

Record growth inhibition per entry; entries follow.
1. O=C(CBr)Nc1ccc(Cl)cc1
2. Nc1ccccc1O.O.O=C(O)C1[O][Sb][O]C1C(=O)O (stereo not drawn)
3. CCC[CH2][Sn]1([CH2]CCC)[O]CC(CN2CCCCC2)[O]1 (stereo not drawn)

Outgoing:
1: 99; 2: 25; 3: 95

====

Task for the reader: assign each of the following compounds its reported growth inhibition.
# ASSAY COMMENT: NCI Yeast Anticancer Drug Screen. Data for the cln2 rad14 strain (AID 165);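 also: 0% = growth equal to vehicle treated cultures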
# ASSAY SETUP: S. cerevisiae cln2 rad14 strain, at 50.0 µM (retest, dose inferred, filed as 5.0), stronger effect = higher value
# Method: Growth inhibition of yeast strains with defined genetic alterations is measured as a screen for potential anti-cancer activity. Selected strains with alterations in DNA damage repair or cell cycle control were exposed to compounds and growth inhibition was measured relative to vehicle treated controls. The strain used in this assay is cln2 rad14
Compounds without any hit were thinned out: in the full panel of roughly 79,000, 15% have a hit.
Answers are plain numbers, in %.

>  <COMPOUND>
O=[N+]([O-])c1cc(Cl)ccc1S(=O)(=O)F

>  <PARAMETER>
growth inhibition

>  <UNIT DESCRIPTOR>
%

>  <OBSERVED MEASUREMENT>
98

$$$$
>  <COMPOUND>
CCC(CC)COC(=O)CI

>  <PARAMETER>
growth inhibition

>  <UNIT DESCRIPTOR>
%

>  <OBSERVED MEASUREMENT>
40

$$$$
>  <COMPOUND>
CC1(C)N=C(N)N=C(N)N1c1ccc(OCCCCNC(=O)Nc2ccc(S(=O)(=O)F)cc2)c(Cl)c1

>  <PARAMETER>
growth inhibition

>  <UNIT DESCRIPTOR>
%

>  <OBSERVED MEASUREMENT>
98

$$$$
>  <COMPOUND>
CCC[CH2][Sn]1([CH2]CCC)[O]C(=O)c2ccc(C)cc2[O]1

>  <PARAMETER>
growth inhibition

>  <UNIT DESCRIPTOR>
%

>  <OBSERVED MEASUREMENT>
98

$$$$
>  <COMPOUND>
CC(=O)[C-](Cl)C(C)=O.CC(=O)[C-](Cl)C(C)=O.CC(=O)[C-](Cl)C(C)=O.[Ru+3]

>  <PARAMETER>
growth inhibition

>  <UNIT DESCRIPTOR>
%

>  <OBSERVED MEASUREMENT>
99

$$$$

Record growth inhibition per entry; entries follow.
1. CC(C)CC(C)(c1ccc(O)cc1)c1ccc(O)cc1
2. CC(=O)[O][Pb]([O]C(C)=O)([O]C(C)=O)[c]1ccccc1
3. Oc1cc(Cl)c(Cl)cc1Cl.[Cu+2]

Outgoing:
99
99
98
